B1: RIPK4 (parent)
chain: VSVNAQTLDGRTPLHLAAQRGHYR

Variants of: B1
Assay: protein stability index of a GFP-peptide fusion (GPS, HEK-293T) (PSI 1-6); higher = more stable;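 also: lentivirally expressed fusions sorted by FACS into six bins by GFP to DsRed ratio, PSI derived from sequencing read proportions per bin multiplied by bin number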
Conditions: c terminus: a fixed tail appended
Attribute: protein stability index

{"mutantLabel": "R20N", "protein stability index": 2.71}
{"mutantLabel": "A18L", "protein stability index": 2.64}
{"mutantLabel": "Q6D", "protein stability index": 3.93}
{"mutantLabel": "D9E", "protein stability index": 3.78}
{"mutantLabel": "H22M", "protein stability index": 2.96}
{"mutantLabel": "P13R", "protein stability index": 3.1}
{"mutantLabel": "P13F", "protein stability index": 2.34}
{"mutantLabel": "R24K", "protein stability index": 3.11}
{"mutantLabel": "A5Q", "protein stability index": 3.13}
{"mutantLabel": "H22Q", "protein stability index": 3.56}
{"mutantLabel": "A18T", "protein stability index": 3.08}
{"mutantLabel": "G10S", "protein stability index": 3.57}
{"mutantLabel": "H15G", "protein stability index": 3.08}
{"mutantLabel": "A5H", "protein stability index": 3.36}
{"mutantLabel": "G10H", "protein stability index": 3}
{"mutantLabel": "L8T", "protein stability index": 3.77}
{"mutantLabel": "Y23I", "protein stability index": 3.39}
